Assay: Cellular Toxicity (caspase-3) Hek293 (AID 664);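 note: cells exposed to compound for 16 h at 37 °C before readout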
Conditions: HEK293 caspase-3 activation, DMSO = 0%, 100 µM tamoxifen = 100%; at 92.2 µM (top of the series)
From the text: NIH Chemical Genomics Center [NCGC] NIH Molecular Libraries Screening Centers Network [MLSCN] National Institutes of Environmental Health Sciences [NIEHS] National Toxicology Program [NTP] We have developed a 1536-well cell-based assay for quantitative high throughput screening (qHTS) against a number of cell lines to determine in vitro caspase 3/7 of small molecules. […] 8. Detection; Luminescence; Viewlux plate reader […]
Records with an inconclusive call do not appear. Active and inactive are the calls of the source. Calls come from the whole dose curve; as a rule, active = well fitted activation curve with a large enough effect; inconclusive = small, poorly fitted or top-dose-only effect; inactive = flat fitted curve, though single readings scatter.
Would you mind telling me the reported caspase-3 activation of each entry?

- Oc1c(Cl)cc(Cl)c(Cl)c1Cl: 1.49% (inactive)
- O=C1c2ccccc2C(=O)C1(O)O: 0.893% (inactive)
- Nc1ccc2c(c1)C(=O)c1ccccc1C2=O: -8.84% (inactive)
- Brc1cc(Oc2cc(Br)c(Br)c(Br)c2Br)c(Br)c(Br)c1Br: 0.395% (inactive)

Field: caspase-3 activation. Fill in for each record below.
1. O=[N+]([O-])c1ccc(F)cc1F
2. O=CC(=O)c1ccccc1
3. Cc1ccc2ccc3cccc4ccc1c2c34

[out]
1. -0.155% (inactive)
2. 3.78% (inactive)
3. 0.114% (inactive)

Field: caspase-3 activation. Fill in for each record below.
1. c1c[nH]cn1
2. NC(=O)Nc1nc2ccccc2[nH]1
3. CCCCC(CC)COCCCN (stereo unspecified)
4. O=c1[nH]ncc2ccccc12
5. O=C(OCC1CO1)C1CCCCC1C(=O)OCC1CO1 (stereo unspecified)
6. CC(=O)OCc1ccc2c(c1)OCO2

[out]
1. -0.608% (inactive)
2. -0.34% (inactive)
3. -1.34% (inactive)
4. -1.83% (inactive)
5. 4.8% (inactive)
6. -3.09% (inactive)
